Every entry's value here was drawn from PubChem BioAssay (NCI).

# System: DMS 273 small cell lung
# Protocol description: NCI tumour cell line growth inhibition, 48 h
Readout name: TGI

Some solved cases for reference:
CC[C@]1(O)CC2CN(CCCc3c([nH]c4ccccc34)[C@@](C(=O)OC)(c3cc4c(cc3OC)N(C)C3C45CCN4CC=C[C@](CC)(C45)C(OC(C)=O)[C@@]3(O)C(=O)OC)C2)C1 (stereo partly specified) ... > 10 µM
CCCCCCCCCCCCCCCCCC(=O)NCC(COP(=O)([O-])OCC[N+](C)(C)C)OC (stereo unspecified) ... 2.93 µM
O=C1N[C@H](Cc2cnc[nH]2)C(=O)N2CCC[C@@H]12 ... > 100 µM
Cc1ccc(S(=O)(=O)CC(=O)CC(=O)C(=O)Nc2cccc(C(F)(F)F)c2)cc1 ... > 100 µM
COP(=O)(CC(=O)C1OC(C)(C)OC1C(O)COCc1ccccc1)OC (stereo unspecified) ... > 100 µM
Clc1ccc(C2=Nc3ccccc3SC(c3cccs3)C2)cc1 (stereo unspecified) ... 27.1 µM
CCOC(=O)C1C(=O)CN2CCc3c([nH]c4ccccc34)C12C(=O)OCC (stereo unspecified) ... > 100 µM
CN(C)C(=O)N(CCCl)N=O ... > 100 µM

Provide TGI values for the following items, in order.
1. O=C(Nc1ccc(F)cc1)C(=O)C(C(=O)c1ccccc1F)C1OC(=O)c2ccccc21 (stereo unspecified)
2. COC(=O)C1CC(C(=O)OC)c2nc3cc([N+](=O)[O-])ccc3nc21 (stereo unspecified)
3. N#CCCN(c1ccc(/C=N/c2nc(-c3ccccc3)cs2)cc1)S(=O)(=O)c1ccccc1

Response:
1: > 100 µM; 2: > 100 µM; 3: > 100 µM
